Where do the numbers come from? From PubChem BioAssay (NCI).

The reader will find reported growth inhibition values listed item by item below.
- method: NCI Yeast Anticancer Drug Screen. Data for the bub3 strain (AID 167)
- condition notes: S. cerevisiae bub3 mutant strain, at 50.0 µM, stronger effect = higher value
Compounds without any hit were thinned out: in the full panel of roughly 79,000, 15% have a hit.
Numbers only; they are read as %.

molecule: CC(=O)NCC1OC2COC(c3ccccc3)OC2C2N=C(c3ccccc3)OC12 (centres undefined)
growth inhibition / %: 14.8

Can you look up the measured growth inhibition of CCOc1nc(N)nc(C)c1N=Nc1ccc(C)cc1 for me? -5.05

Can you look up the measured growth inhibition of COc1cc(NS(=O)(=O)c2ccc(C)cc2)c2nccnc2c1 for me? 11.9

Can you look up the measured growth inhibition of O=C(Cc1ccccc1)NN1C(=O)C(Cl)C1c1ccc(O)cc1 (centres undefined) for me? -29.4

* * *

- method: NCI Yeast Anticancer Drug Screen. Data for the sgs1 mgt1 strain (AID 161);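 note: 0% = growth of cultures given vehicle only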
- condition notes: S. cerevisiae sgs1 mgt1 strain, at 50.0 µM, stronger effect = higher value
The panel holds about 79,000 compounds, 15% with a hit somewhere; the sample as a whole holds those more often.
property: growth inhibition (%)
Numbers only; they are read as %.

Look over these answered cases.
compound: O=C1c2ccccc2C(=O)N1C1(C(=O)NC2(C(=O)O)CCCC2)CCCC1
growth inhibition [%]: -37.8

compound: Cc1ccc(O)c(C)n1
growth inhibition [%]: 0.15

compound: Cc1ccc2nc(Nc3nc(C)cc(C)n3)[nH]c2c1
growth inhibition [%]: -21.9

Can you look up the measured growth inhibition of O=C(O)c1ccccc1P(=O)(O)c1ccccc1 for me? -6.7

Can you look up the measured growth inhibition of NC(CSS(=O)(=O)O)=NCCSS(=O)(=O)O for me? -3.45

Can you look up the measured growth inhibition of OC1CCC(c2ccccc2)CC1 (stereo not drawn) for me? 19.9

Can you look up the measured growth inhibition of CCOC(=O)COc1cc2c(cc1Cc1ccc3c(c1)OCO3)OCO2 for me? -0.7

Can you look up the measured growth inhibition of COc1ccc(C2=NOC(c3ccc(OC)cc3)C2)cc1 (stereo not drawn) for me? -7.25

Can you look up the measured growth inhibition of CCOC(=O)CSc1nc(-c2ccc(Cl)cc2)c(C#N)c(=O)[nH]1 for me? 2

Can you look up the measured growth inhibition of Clc1ccc(-c2nnc(-c3ccccc3)o2)cc1Cl for me? -0.4

Can you look up the measured growth inhibition of CC1=C[P+](c2ccccc2)(c2ccccc2)C=C(C)O1 for me? 12.6

* * *

- method: NCI Yeast Anticancer Drug Screen. Data for the rad50 strain (AID 155);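 note: 0% = growth of vehicle-only cultures of the same strain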
- condition notes: S. cerevisiae rad50 strain growth inhibition; at 50.0 µM; stronger effect = higher value
This is part of a sample that, as a whole, favours compounds with a hit. Of some 79,000 tested, about 15% had one in any assay.
property: growth inhibition (%)
Numbers only; they are read as %.

Look over these answered cases.
compound: COc1cccc(NC(=O)NCCN(C)c2ccccc2)c1
reported: -5.7

compound: CCCCCCCCCCCCCOCC(=O)OC
reported: -0.75

compound: CC(C)=CC(=O)N1CCN(C(=O)C=C(C)C)CC1
reported: -33.9

compound: O=C(Nc1ccc(Cl)cc1)OCC#CCOC(=O)Nc1ccc(Cl)cc1
reported: 5.8

Can you look up the measured growth inhibition of Cc1cn(C2CC(N(C)C)C(CO)O2)c(=O)[nH]c1=O (stereo not given) for me? -28.2

Can you look up the measured growth inhibition of Cc1nc(N)c(-c2ccccc2)s1 for me? 18.1

Can you look up the measured growth inhibition of CO/N=C(\C(=O)N(C)n1cnnc1)c1csc(NC(c2ccccc2)(c2ccccc2)c2ccccc2)n1 for me? 21.7

Can you look up the measured growth inhibition of CCCC1C(C#N)(C#N)C(C#N)=C(N)C1(C)C(C)=O (stereo not given) for me? 3.4

Can you look up the measured growth inhibition of O=[N+]([O-])c1ccc(/C(CBr)=N/N2CCCCC2)cc1 for me? -19.6
